Tested on: non-replicating M. tuberculosis, luciferase reporter luminescence
test-name: inhibitors of non-replicating M. tuberculosis, dose response, luciferase, dry powder (AID 743183)
Records with an inconclusive call do not appear.
Each entry below carries its recorded AC90.

Look over these answered cases.
| molecule | measurement-target | readout-kind | result |
| --- | --- | --- | --- |
| O=C(CCN1CCC(c2cccs2)=N1)c1cccs1 | non-replicating M. tuberculosis, luciferase reporter luminescence | AC90 | 14.3 µM |
| C=CCn1c(NC(=O)c2ccccc2)nc2ccccc21 | non-replicating M. tuberculosis, luciferase reporter luminescence | AC90 | 7.69 µM |
| O=C(Nc1nc2ccccc2[nH]1)c1cccc(Cl)c1 | non-replicating M. tuberculosis, luciferase reporter luminescence | AC90 | 4.96 µM |
| COC(=O)COc1ccc2c(=O)c(Oc3ccccc3)c(C)oc2c1 | non-replicating M. tuberculosis, luciferase reporter luminescence | AC90 | 2.94 µM |
| CCCOC(=O)c1ccc(NC(=O)c2ccc(Br)o2)cc1 | non-replicating M. tuberculosis, luciferase reporter luminescence | AC90 | 7.14 µM |
| Cc1cc(C)n2nc(S(=O)(=O)Nc3c(Cl)cccc3Cl)nc2n1 | non-replicating M. tuberculosis, luciferase reporter luminescence | AC90 | 5.45 µM |
| Fc1ccc(-c2ccc(CNCc3ccccn3)o2)cc1Cl | non-replicating M. tuberculosis, luciferase reporter luminescence | AC90 | 13.7 µM |
| CCCCN(C/C=C/c1ccccc1OC)Cc1ccccc1 | non-replicating M. tuberculosis, luciferase reporter luminescence | AC90 | 24.6 µM |

Problem: Which AC90 value is on record for NC(=O)C1(N2CCCCC2)CCN(C2CC(=O)N(CCc3ccccc3)C2=O)CC1 (stereo not given) ?
Solution: 22.3 µM

Problem: Which AC90 value is on record for "Cc1nnc(NC(=O)c2ccc3ccccc3c2)o1" ?
Solution: 0.372 µM
